System: NCI-H460 lung
Assay: NCI tumour cell line growth inhibition, 48 h; in the data active means GI50 below about 0.43 µM; inactive means the rest
# output must be one of active, inactive

CC[C@@]1(O)C(=O)OCc2c1cc1n(c2=O)Cc2cc3cc(Cl)ccc3nc2-1 | active
O=C(COc1ccc(/C=C2\Oc3ccc4ccccc4c3C2=O)cc1)c1ccc([N+](=O)[O-])cc1 | inactive
CC/C=C\C[C@H]1C/C=C2/C(=O)C=C[C@H]2C/C=C\CCCC(=O)O1 | inactive
COc1ccccc1-n1cnc(N)c1C(=O)c1cc(OC)c(OC)c(OC)c1 | inactive

Problem: Called result for `O=C(Nc1ccc(OS(=O)(=O)c2ccc(F)cc2)cc1)C12CC3CC(CC(C3)C1)C2`
Solution: inactive

###

System: NCI-H23 lung
Test: NCI tumour cell line growth inhibition, 48 h
assay_metric: TGI

Previously resolved entries follow.
COc1c(C)c(C/C=C(\C)CC/C=C(\C)CC/C=C(\C)CCC=C(C)C)c(OC)c(OC)c1OC | > 100 µM
Nc1nc(N)c2c(n1)NC(c1sc(Cl)nc1Cl)CC(c1ccccc1)=N2 (centres undefined) | 23.3 µM
Cn1c(N/N=C/c2ccccc2)nc(-c2ccc3c(c2)OCO3)c(C#N)c1=O | > 100 µM
CC(=O)c1ccc(N2C(=O)C3c4[nH]c5ccccc5c4C4CCC(C(C)(C)C)CC4C3C2=O)cc1 (centres undefined) | 45.3 µM
O=C([CH-]C(=O)c1ccccc1)c1ccccc1.[C-]#[O+].[C-]#[O+].[Ir] | > 100 µM
N#CCCN(CCC#N)c1ccc(/C=C(/NC(=O)c2cc([N+](=O)[O-])ccc2Cl)C(=O)N=[N+]=[N-])cc1 | > 100 µM
CCOC(=O)/C(Br)=C1\OC(=O)c2ccccc2-c2ccccc21 | > 100 µM
O=[N+]([O-])c1cc(Br)cc2cc(Cl)cnc12 | > 100 µM

With those in mind, consider the next compound.
Problem: Give the measured TGI of `CC[C@H](C)[C@H](NC(=O)N(CCC#N)CCN(CCN(C(=O)N[C@@H](Cc1ccccc1)C(=O)OC)c1ccccc1)C(=O)N[C@H](C(=O)OC)C(C)C)C(=O)OC` .
Solution: 40.1 µM

###

System: HOP-92 NSCLC
Assay: NCI tumour cell line growth inhibition, 48 h
assay_metric: TGI

Previously resolved entries follow.
CC[C@H](C)[C@H](NC(=O)N(CCC#N)CCN(CCN(C(=O)N[C@@H](Cc1ccccc1)C(=O)OC)c1ccccc1)C(=O)N[C@H](C(=O)OC)C(C)C)C(=O)OC | 23.3 µM
CN(C(=O)[C@H](NC(=O)OCc1ccccc1)c1ccccc1)C1CCCCC1N1CCCC1 (stereo partly specified) | > 100 µM
CC1(CO)C(O)CCC2(C)C1CCC1CC3CC12CCC3(O)CO (stereo unspecified) | > 100 µM
O=C1C=CC2(CCCCCCC2=O)CC1 (stereo unspecified) | > 100 µM
CC1(C)OB(c2ccc(N(CCOS(C)(=O)=O)CCOS(C)(=O)=O)cc2)OC1(C)C | 48.6 µM

Problem: Give the measured TGI of `C[C@@H]1C[C@H]2OC(=O)[C@@]3(C)CCC[C@@](C)([C@@H]23)[C@@]1(O)CCc1ccoc1` .
Solution: > 100 µM

Problem: Give the measured TGI of O=C(O)C1C2C=CC(O2)C1C(=O)NCc1cccnc1 (stereo unspecified) .
Solution: > 100 µM

Problem: Give the measured TGI of `CC(=N/NC(=S)N1CCCCCC1)/C(C)=N\NC(=S)N1CCCCCC1` .
Solution: 2.77 µM

Problem: Give the measured TGI of `O=C(Nc1ccc(OS(=O)(=O)c2ccc(F)cc2)cc1)C12CC3CC(CC(C3)C1)C2` .
Solution: 18.1 µM

Problem: Give the measured TGI of `Cc1ccccc1/C=C/c1csnn1` .
Solution: > 100 µM

Problem: Give the measured TGI of `COc1ccc(-c2nc(-c3ccc(OC)cc3)n(-c3ccccc3)n2)cc1` .
Solution: > 100 µM

Problem: Give the measured TGI of `COc1ccccc1-n1cnc(N)c1C(=O)c1cc(OC)c(OC)c(OC)c1` .
Solution: > 100 µM

Problem: Give the measured TGI of O=C(CCC(=O)Nc1ccccc1C(F)(F)F)N/N=C1\C(=N\NC(=O)CCC(=O)Nc2ccccc2C(F)(F)F)C(c2ccc3c(c2)OCO3)Oc2ccccc21 (stereo unspecified) .
Solution: > 87.1 µM

Problem: Give the measured TGI of `Oc1ccc(NC(=S)Nc2ccccc2)cc1` .
Solution: > 100 µM
